src = patent US20230063462A1

# Test system: THP-1 cells
# METHOD_DESCRIPTION: hTHP-1 assay: gramicidin-stimulated IL-1β detection in PMA-treated THP-1 cells
# Type: cell-based, human
# TEST_CONTEXT: Table B2; 10% FBS; class symbol
pIC50: −log10 of the molar value.
In this section we review reported pIC50 values for a set of compounds.

Reference set, count: 2
[
  {
    "COMPOUND": "NS(=O)(=NC(=O)Nc1c2c(nc(C3CC3)c1C1CC1)CCC2)c1nn(C2CC2)cc1F (single isomer, unassigned) [Example 882]",
    "TARGET_SYSTEM": "THP-1 cells",
    "pIC50": "6.70 to 7.40"
  },
  {
    "COMPOUND": "Cc1c(C(F)(F)F)nc2c(c1NC(=O)N=S(N)(=O)c1ccn(C3CC3)n1)CCC2 (single isomer, unassigned) [Example 890]",
    "TARGET_SYSTEM": "THP-1 cells",
    "pIC50": "6.70 to 7.40"
  }
]

Sample NS(=O)(=NC(=O)Nc1c2c(nc3c1CCC31CC1)CCC2)c1ccn(C2CC2)n1 (single isomer, unassigned) [Example 885] — what was its pIC50?
5.30 to 6.00

Suppose we examine the compound C[C@H](O)Cn1cc(F)c(S(N)(=O)=NC(=O)Nc2c3c(nc4c2CCC42CC2)CCC3)n1 (single isomer, unassigned) [Example 897] ; what pIC50 value has been reported?
6.00 to 6.70

Need pIC50 of NS(=O)(=NC(=O)Nc1c2c(nc(C(F)(F)F)c1C1CC1)CCC2)c1nn(C2CC2)cc1F (single isomer, unassigned) [Example 880] , thanks.
6.70 to 7.40
